# targetEntity: T1, human MSLN-R3-3 polypeptide (human)
# T1 construct: also called human MSLN-R3-3 protein; hMSLN-R3-3
# protocolNotes: ELISA on coated antigen, antibody 0.001 nM
Measured OD450 accompanies every entry in the list below.
measureName: OD450 (OD450)

binder: S009-F2.21.4 (antibody, human IgG1, kappa, V domains shown, Human-murine chimeric antibody: murine VH/VL on human IgG1 heavy and kappa light constant regions) VH: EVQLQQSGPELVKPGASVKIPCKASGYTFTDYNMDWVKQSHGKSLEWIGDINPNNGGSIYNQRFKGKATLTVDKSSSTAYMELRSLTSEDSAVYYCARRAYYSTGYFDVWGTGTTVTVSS VL: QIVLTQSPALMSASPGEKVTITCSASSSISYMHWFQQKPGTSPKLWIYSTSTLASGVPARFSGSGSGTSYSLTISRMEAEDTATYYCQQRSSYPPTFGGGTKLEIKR
measureName: OD450
measurementUnit: OD450
testResult: 0.05
--
binder: S009-F2.38.12 (antibody, human IgG1, kappa, V domains shown, Human-murine chimeric antibody: murine VH/VL on human IgG1 heavy and kappa light constant regions) VH: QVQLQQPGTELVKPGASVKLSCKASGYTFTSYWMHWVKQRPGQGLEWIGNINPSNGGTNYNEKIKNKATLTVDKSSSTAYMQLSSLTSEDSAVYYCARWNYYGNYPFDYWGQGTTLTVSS VL: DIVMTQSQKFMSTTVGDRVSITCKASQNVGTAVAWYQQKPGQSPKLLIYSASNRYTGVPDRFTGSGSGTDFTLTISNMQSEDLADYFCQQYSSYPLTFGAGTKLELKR
measureName: OD450
measurementUnit: OD450
testResult: 0.05
--
binder: S009-F2.13.3 (antibody, human IgG1, kappa, V domains shown, Human-murine chimeric antibody: murine VH/VL on human IgG1 heavy and kappa light constant regions) VH: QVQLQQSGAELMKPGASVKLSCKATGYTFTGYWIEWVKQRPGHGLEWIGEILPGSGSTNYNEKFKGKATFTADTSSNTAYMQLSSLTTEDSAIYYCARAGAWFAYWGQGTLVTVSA VL: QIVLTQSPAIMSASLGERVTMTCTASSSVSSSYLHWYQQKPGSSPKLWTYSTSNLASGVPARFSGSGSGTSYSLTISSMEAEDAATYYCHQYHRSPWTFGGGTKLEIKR
measureName: OD450
measurementUnit: OD450
testResult: 0.05

This collection of values is drawn from patent US20250250357A1.
